test: Viability of 2.2.15 cells (propidium iodide FACS, 35S methionine incorporation); assay type: cell-based; details: human, 1000 μg/ml, six days, read-out: cells as viable as untreated controls
recorded endpoint: viability at 144 h (%)
# output: bare number, implied unit %

INPUT: Requested field: viability at 144 h. Item: CCCCN1C[C@H](O)[C@@H](O)[C@H](O)[C@H]1CO [NBDNJ, N-butyl-1,5-dideoxy-1,5-imino-D-glucitol]
OUTPUT: 90

Where do the numbers come from? From patent US6037351A.
